Target: T1, recombinant human C1r2s2 Flag/His tetramer (human, UniProt P09871 16-688; P00736 18-705)
T1 construct: whole entries named; also called hc1r2s2; rC1r2s2
T1 chain 1: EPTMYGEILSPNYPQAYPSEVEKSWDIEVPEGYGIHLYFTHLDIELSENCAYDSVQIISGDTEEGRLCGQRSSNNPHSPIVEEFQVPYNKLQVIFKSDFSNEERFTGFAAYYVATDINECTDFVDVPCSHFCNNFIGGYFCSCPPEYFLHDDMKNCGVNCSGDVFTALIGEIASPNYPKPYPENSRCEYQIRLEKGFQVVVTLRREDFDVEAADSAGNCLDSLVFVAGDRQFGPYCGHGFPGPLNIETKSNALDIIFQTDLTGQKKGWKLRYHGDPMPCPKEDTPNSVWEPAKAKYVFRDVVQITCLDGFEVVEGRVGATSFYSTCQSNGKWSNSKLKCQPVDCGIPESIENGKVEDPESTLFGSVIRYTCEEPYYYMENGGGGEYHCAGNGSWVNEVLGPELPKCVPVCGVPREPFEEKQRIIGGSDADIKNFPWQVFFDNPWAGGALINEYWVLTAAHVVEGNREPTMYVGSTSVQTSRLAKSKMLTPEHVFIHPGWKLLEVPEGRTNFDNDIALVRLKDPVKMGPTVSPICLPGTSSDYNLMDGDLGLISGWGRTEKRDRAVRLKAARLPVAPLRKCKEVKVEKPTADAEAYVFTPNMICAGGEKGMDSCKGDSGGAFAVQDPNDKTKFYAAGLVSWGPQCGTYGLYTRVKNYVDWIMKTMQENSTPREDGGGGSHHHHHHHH
T1 chain 2: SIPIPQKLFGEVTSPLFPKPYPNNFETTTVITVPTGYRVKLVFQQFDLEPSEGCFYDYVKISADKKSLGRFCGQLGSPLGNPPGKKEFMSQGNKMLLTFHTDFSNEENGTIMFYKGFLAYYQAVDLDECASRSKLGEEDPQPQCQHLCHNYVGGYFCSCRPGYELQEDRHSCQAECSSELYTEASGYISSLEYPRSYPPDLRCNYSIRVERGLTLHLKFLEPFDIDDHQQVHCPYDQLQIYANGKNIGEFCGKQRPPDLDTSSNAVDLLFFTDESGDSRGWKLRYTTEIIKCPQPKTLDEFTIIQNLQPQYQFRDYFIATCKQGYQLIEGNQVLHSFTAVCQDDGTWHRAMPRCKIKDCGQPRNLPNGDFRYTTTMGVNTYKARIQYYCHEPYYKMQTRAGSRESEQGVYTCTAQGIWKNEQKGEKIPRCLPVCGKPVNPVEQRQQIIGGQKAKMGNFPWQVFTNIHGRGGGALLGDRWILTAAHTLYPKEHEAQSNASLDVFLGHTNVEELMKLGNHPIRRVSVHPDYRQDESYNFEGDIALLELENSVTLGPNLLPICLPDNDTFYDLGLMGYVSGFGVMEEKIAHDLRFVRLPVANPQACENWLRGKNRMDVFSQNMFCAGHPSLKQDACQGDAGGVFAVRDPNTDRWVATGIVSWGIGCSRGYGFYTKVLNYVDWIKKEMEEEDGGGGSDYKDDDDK
Assay: SPR displacement (37 degrees C, pH 7.4): C1r2s2 captured by anti-His, C1q 100 nM pre-bound, antibody 500 nM at 10 micro L/min; time from antibody injection until the antibody sensorgram falls below the buffer sensorgram; competitor native human C1q
Below: a set of entries, each annotated with reported Time point of crossover (post-injection).
Write the answer as a number in s, unit excluded.

Worked cases, answers included:
• COR0278bb-SG1148 (antibody, human IgG1, kappa, V domains shown, Anti-C1r antibody) VH: QSLEESGGRLVTPGTPLTLTCTASGFSLSSYDMTWVRQAPGKGLEWIGIIYTLGSAYYASWAKGRFTISRTSTTVDLKMTSPTTEDTATYFCARGGDSYGAVDTAFDLWGPGTLVTVSS VL: AQVLTQTPSPVSAAVGGTVTISCQSSPSVYSNYLSWYQQKPGQPPKLLIYRASRLASGVPSRFKGSGSGTQFTLTISEVQCDDAATYYCQGYFGNGINAFGGGTKVEIKR = 218
• COR0212bb-SG1148 (antibody, human IgG1, kappa, V domains shown, Anti-C1r antibody) VH: QEQLKESGGGLVTPGGTLTLTCTASGFSLSSYDMSWVRQAPGKGLDWIGIINTGGSAYYATWAKGRFTISKTSTTVDLKITSPTTEDTATYFCGRKINDAFDPWGPGTLVTVSS VL: AQVLTQTPFSVSAAVGGTVTINCQASESISSNLAWYQQKPGQPPKLLIYDASDLASGVPSRFKGSGSGKQFTLTISGVQCDDAATYFCQHGWIYDTIDSNCFGGGTKVEIKR = 432

Query: Using known records, supply Time point of crossover (post-injection) for COR0205gg-SG1148 (antibody, human IgG1, kappa, V domains shown, Anti-C1r antibody; also called COR205gg(-SG1148)) VH: QSLEESGGGLFKPTDTLTLTCTVSGFSLSSNAMSWVRQAPGKGLEYIGIIYLTGVTYYATWAKGRFTISKTSTTVDLKITSPTTEDTATYFCAGGEFSLWGPGTLVTVSS VL: DIIMTQTPASVEAAVGGTVTIKCQASQGIDNYFSWHQQKPGQPPKLLIYKASTLASGVSSRFKGSGSGTEFTLTISDLECDDAATYYCQCTYGYNINDNYGNAFGGGTKVEIKR
Reply: 216

Source: patent US20210198347A1
